- Assay method text: Clearance in Sprague-Dawley rat at 2.5 mg/kg, iv and 5 mg/kg, po
- Type: ADME, organism-based
- Setup conditions: in vivo
Measured parameter: clearance (mL/min/kg)
Write the number in mL/min/kg without appending the unit.

Example cases with answers are listed next.
C[C@@H]1COCCN1c1nc(-c2cncc3[nH]ccc23)cc2c1ncn2C = 49
C[C@@H]1COCCN1c1nc(-c2cncc3[nH]ccc23)cc2c1ncn2[C@@H](C)S(C)(=O)=O = 114
C[C@@H]1COCCN1c1nc(-c2c(F)ncc3[nH]ccc23)cc2c1ncn2C = 20
CS(=O)(=O)Cn1cnc2c(N3CCOCC3)nc(-c3cccc4[nH]ccc34)cc21 = 14

Reported clearance ( `C[C@@H]1COCCN1c1nc(-c2nncc3[nH]ccc23)cc2c1ncn2C` ) = 34

Data provenance is ChEMBL document CHEMBL3352352.
